tested on: MILI (PIWIL2) piRISC loaded with piRNA #1 (26 nt); experiment: pre-steady-state target cleavage rate (min^-1); guide: piRNA #1 5'p-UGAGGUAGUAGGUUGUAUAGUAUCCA; higher = faster piRNA-guided slicing of the target; conditions: auxiliary factor: 500 nM mouse GTSF1;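 further: 1 nM active piRISC with 0.1 nM target library at 33 °C single turnover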
Label rule, in plain words: pre-steady-state target cleavage rate of 0.03 and up is condition met, under 0.03 is condition not met.

sequenceEntry | answerLabel
GGAGACCUAUGAAUACAACGUACUAGCUCA | condition not met
GGAGACCAUACUAUACAACCUUCUACCUCA | condition not met
GGAGAGGAUACUAUCACAACCUACUACCUCA | condition met
GGAGACCUAACUAUACAACCUACCUACCUCA | condition met
GGAGUGGAUACUAUACAUCCUACUACGUCA | condition met
GGAGACCUAUGAUAUGUACCAACUAGCUCA | condition not met
GGAGACCUAUGUAUACAUCCUACUAGCUCA | condition met

====

system: EfPiwi piRISC loaded with L1MC piRNA (26 nt); test: pre-steady-state target cleavage rate (min^-1); auxiliary factor: 500 nM Ephydatia muelleri Gtsf1; guide: L1MC piRNA 5'p-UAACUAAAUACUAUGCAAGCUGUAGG; higher = faster piRNA-guided slicing of the target
pre-steady-state target cleavage rate: recorded values
propertyLabel: pre-steady-state target cleavage rate

sequenceEntry | propertyLabel | result
UCCUGCUACAGCUUGCUUAGUAUAUAGUUA | pre-steady-state target cleavage rate | 0.0125
UCCUGGAUGAGCUUGGAUAGUAUUUAGAAA | pre-steady-state target cleavage rate | 0.00463
UCCUGGAACAGCUUGCAAUGUAUUUAGUUA | pre-steady-state target cleavage rate | 0.00454
UCCUCCUACAGCUUCGCAUAGUAUUUAGUUA | pre-steady-state target cleavage rate | 0.121
UCCUGCUACAGCUUGCAAAGUAUUUAGUAA | pre-steady-state target cleavage rate | 0.00434
UCCUGGAUCACCUUGCAUAGUAUUUAGUAA | pre-steady-state target cleavage rate | 0.00344
UCCUCGUACAGCUUGCAUUGUAUUUAGUUA | pre-steady-state target cleavage rate | 0.0163
UCCUCCUUCAGCUUGCAUAGAAUUUAGUUA | pre-steady-state target cleavage rate | 0.00469
UCCUGGAUGUCCUUGCAUAGUAUUUAGGUUA | pre-steady-state target cleavage rate | 0.00393
UCCUGGAUCAGCUUGCGUAGUAUUUAGUUA | pre-steady-state target cleavage rate | 0.0111
UCCUGCUCAGCUUGCAUAGUAUUUAGUUA | pre-steady-state target cleavage rate | 0.065
UCCUGCUACAGGUUGCAUAGUAUAUAGUUA | pre-steady-state target cleavage rate | 0.005
UCCUGCUACAGCUUGCAUACUAAUUAGUUA | pre-steady-state target cleavage rate | 0.00252

====

test system: EfPiwi piRISC loaded with L1MC piRNA (26 nt); assay: pre-steady-state target cleavage rate (min^-1); auxiliary factor: 500 nM Ephydatia muelleri Gtsf1; guide: L1MC piRNA 5'p-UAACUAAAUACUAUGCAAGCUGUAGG; higher = faster piRNA-guided slicing of the target
The entries below come with measured pre-steady-state target cleavage rate values attached.

sequenceEntry | qualifierSymbol | pre-steady-state target cleavage rate
UCCUGGAUGAGCUUGCAUAGUAAUUACAAA | = | 0.00446
UCCUGCACAGCUUGCAUAGUAUUUAGUUA | = | 0.0745
UCCUGGAUGUCGAACCAUUGUAUUUAGUAA | < | 0.0001
UCCUGGAUGUGGUUGCAUAGUAUAUAGUUA | = | 0.00747
UCCUCCUACAGCUUGCAUAGUAAAAAGAAA | = | 0.00287
UCCUGGUACAGCUUGCAUAGUAUUUAGUGUA | = | 0.00435
UCCUGGAUCAGCUUCCAUAGUAUUUAGUUA | = | 0.00321
UCCUGGAUGUCCUUGCAUAGUAUUAUAGUUA | = | 0.00424
UCCUGGAUGUCCAUUGCAUAGUAUUUAGUUA | = | 0.00326
UCCUGGUACAGCUUGCAAAGUUUUUAGUUA | = | 0.00245
UCCUCCUACACCUUGCAUAGUAUUUAGUUA | = | 0.0762
UCCUGCAACAGCUUGCAUAGAAUUUAGUUA | = | 0.00434
UCCUGGAUGUCGAACCAUAGUAUUUAGGUA | < | 0.0001
UCCUGGAACAGGAUGCAUAGUAUUUAGUAA | = | 0.0055
UCCUGGAUCAGGCUUGCAUAGUAUUUAGUUA | = | 0.0132
UCCUGGAUGAGCUUGCUUAGUAUUUAGAUA | = | 0.00382
UCCUGGAACACCUUGCAUAGUAAUUAGUUA | = | 0.00283
UCCUCCUUACAGCUUGCAUAGUAUUUAGUUA | = | 0.117
UCCUGGAUGUCGAACGUAUGUAUUUUAGUUA | < | 0.0001
UCCUGGUACAGCUUGCAUAGUUUUUAGUAA | = | 0.00728
UCCUCCUACUCCUUGCAUAGUAUUUAGUAA | = | 0.00518
UCCUGGAUGUCGAACGUUAGAUUUAGUUA | < | 0.0001
UCCUGCUACAGCUUGCAUAGUAUAUUGUUA | = | 0.00351
UCCUGGAAGAGCUUCCAUAGUAUUUAGUUA | = | 0.00329
UCCUGCUACAGCUUGCAUAGAAUUAAGUUA | = | 0.00288
UCCUGCUACACCUUGCAUAGUAUUUAGUUA | = | 0.0124
UCCUGGAAGUCCUUGCAUAGUAUUUAGAAA | = | 0.00315
UCCUGCUACAGCUUCCAAAGUAUUUAGUUA | = | 0.00321

====

tested on: EfPiwi piRISC loaded with L1MC piRNA (26 nt); test: pre-steady-state target cleavage rate (min^-1); auxiliary factor: 500 nM Ephydatia muelleri Gtsf1; guide: L1MC piRNA 5'p-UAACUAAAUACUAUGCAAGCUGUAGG; higher = faster piRNA-guided slicing of the target

sequenceEntry | pre-steady-state target cleavage rate
UCCUGGUACAGCUUGCAUAGUAUCUUAGUUA | 0.00588
UCCUGCUACAGCAUGCAAAGUAUUUAGUUA | 0.00845
UCCUGGUACUCCUUGCAUAGUAUUUAGUAA | 0.00302
UCCUCCUACAGCUUGCAUAGUAAUUAGAAA | 0.00474
UCCUCCUACAGCUAGGAUAGUAUUUAGUUA | 0.0581
UCCUCCUUCAGCUUGCAUAGUAUUUUCAAA | 0.00259
UCCUGCUAGAGCUUGCAUAGUAUUUUGUUA | 0.00421
UCCUGGUCACAGCUUGCAUAGUAUUUAGUUA | 0.00857
UCCUCCUAGAGCUUGGAUAGUAUUUAGUUA | 0.0312
UCCUGCUACACCUUGCAAAGUAUUUAGUUA | 0.00571
UCCUCCAAGAGCUUGCAUAGUAUUUAGUUA | 0.0523
UCCUGGAACAGCUUGCAUAGGUAUUUAGUUA | 0.00262
UCCUCCUACAGCUUGCUUAGUAUUAAGUUA | 0.00459

====

tested on: MILI (PIWIL2) piRISC loaded with piRNA #1 (26 nt); assay: pre-steady-state target cleavage rate (min^-1); guide: piRNA #1 5'p-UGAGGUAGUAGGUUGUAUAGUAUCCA; MIWI and MILI are mouse PIWI proteins and EfPiwi is from a freshwater sponge; tags in brackets are library labels; higher = faster piRNA-guided slicing of the target; conditions: auxiliary factor: 500 nM mouse GTSF1;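 further: 1 nM active piRISC with 0.1 nM target library at 33 °C single turnover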

sequenceEntry | pre-steady-state target cleavage rate
GGAGACCUAUCUAUACAAGGAACUACCUCA | 0.0048
GGAGACCUAACUUUACAACCUACUACCUCA | 0.109
GGAGACCUAACUAUACUAGCUACUACCUCA | 0.12
GGAGACCUGACUAUACAACCUACUACCUCA | 0.125
GGAGACCUAUGUAUACAACCUACUUCCUGA | 0.00819
GGAGACCUAACUUUACAAGCUACUACCUCA | 0.135
GGAGACCAUACUAUAAAACCUACUACCUCA | 0.2
GGAGACCUUACUUAACAACCUACUACCUCA | 0.101
GGAGAGGAUACUAUACAUCCUACUACCUCA | 0.28
GGAGACCUAUCUAUACCACCUACUACCUCA | 0.095
GGAGACGAUAGUAUACAACCUUCUACCUCA | 0.00961
GGAGACCUUAGUUUACAACCUACUACCUCA | 0.0381
GGAGACCAUACUAUACAUCCUACUACCACA | 0.279
GGAGACGAUGCUAUACAACCUACUACCUCA | 0.194
GGAGUGGAUACUAUUCAAGCUACUACCUCA | 0.221
GGAGAGGAUACUAUACAACCUACUAGCUCA | 0.0627
GGAGACCUAUGAUAUCUACCUACUACCUGA | < 0.0001
GGAGAGCAUACUAUACAACCUUCUACCUCA | 0.0105
GGAGUGGAAUCUAUACAACCUACUACCUCA | 0.152
GGAGAGGUUACUAUACAAGCUACUACCUCA | 0.0739
GGAGACCUAUCUAUACAACCUACUACCCUCA | 0.132
GGAGAGGAUACUUUACAACCUUCUACCUCA | 0.00789
GGAGUGGAUUCUAAACAACCUACUACCUCA | 0.143
GGAGACCUUACAAUACAACCUACAACCUCA | 0.111
GGAGACGUUACUAUACAAGCUACUACCUCA | 0.216
GGAGACGAUAGUAUAGAACCUACUACCUCA | 0.158
GGAGACCUAUGAUUACUACCUACUUCCUCA | 0.00322
GGAGACCUAUGUAUACUACGUACUACCUCA | 0.00798
GGAGACCUUACUUUUCAACCUACUACCUCA | 0.0874
GGAGAGGAUACUAUACAACCUACUACGACA | 0.0606
GGAGACCUAUGUAUACAACCUAGAUCCUCA | 0.00265
GGAGACCUAACUAUACUACCUACUACCACA | 0.0974
GGAGAGGAAUCUAUACAACCUACUACCUCA | 0.199
GGAGACCUUACUAUACAUCCUACUACCACA | 0.246
GGAGACCUAACCAUACAACCUACUACCUCA | 0.12
GGAGACCUAUGAUAACAACCUACUCACCUCA | 0.00465
GGAGACCUAUGAUUACAAUCUACUACCUCA | 0.00319
GGAGACGAUACUAUACAAGCUACUACCUGA | 0.202
GGAGACCUAAGAUUACAACCUACUACCUCA | 0.0144
GGAGACCUAUGUAUACAACCUACUGCCUCA | 0.0511
GGAGACCUAUGUAAACAACGUACUACCUCA | 0.0029
GGAGUGGAUAGUAUACAACCUACUACCUCA | 0.0868
GGAGACCUAUGAAUACAACGUACUACCUCA | 0.00541
GGAGACCUAUGAAUACAAGCUUCUACCUCA | 0.0038
GGAGACGAUACUAUACAACCUACUACCUUCA | 0.194
GGAGACCUAUGUAUACAACGUACUACCUGA | 0.00357
GGAGACCUAUGAUUACAACCUACUACCUA | 0.00393
GGAGACGAGUACUAUACAACCUACUACCUCA | 0.176
GGAGACGAUUGAAUACAACCUACUACCUCA | 0.00898
GGAGACGAUACUAUACAAGCUACAACCUCA | 0.211
GGAGACCAUACUUUACUACCUACUACCUCA | 0.129
GGAGACCUAUCUAUACAACCUACUACUUCA | 0.0866
GGAGACCUUACUAUUCAACCUACAACCUCA | 0.12
GGAGGGGAUACUAUACAACCUACUACCUCA | 0.203
GGAGAGGAUACUAUACAACACUACUACCUCA | 0.00372
